Recorded Slope ± SE, one value per entry.
Test system: third-instar larvae of insecticide-susceptible Aedes albopictus
Experiment: contact mortality bioassay, 24 h exposure
Type: in vivo
Conditions: probit slope; Table 4; 24 h exposure
Method: A contact mortality bioassay[25] was used to evaluate the toxicity of all compounds against third-instar larvae of the four mosquito species. Each test compound in methanol was suspended in DW with Triton X-100 (20 µL/L). […] Treated and control (methanol–Triton X-100 solution only) larvae were maintained under the same conditions as those used for colony maintenance without providing food. Larval mortalities were determined 24 h post-treatment. […]
Write no unit; give the number alone.

Worked set:
Challenge: # return recorded Slope ± SE for entry CCCCC/C=C\C/C=C\CCCCCCCC(=O)O [Linoleic acid, (9Z,12Z)-9,12-octadecadienoic acid]
Response given: 4.4

Challenge: # return recorded Slope ± SE for entry COP(=S)(OC)Oc1ccc(Sc2ccc(OP(=S)(OC)OC)cc2)cc1 [Temephos, temephos, reference compound]
Response given: 1.6

Challenge: # return recorded Slope ± SE for entry `C=CCc1ccc(O)c(-c2ccc(O)c(CC=C)c2)c1`
Response given: 2.9

// next item, Slope ± SE requested
Challenge: # return recorded Slope ± SE for entry `CCCCCCCCCCCCCCCC(=O)O`
Response given: 3.1
